# TESTED_SYSTEM: human GLP-1 receptor (hGLP-1R) (human, UniProt P43220 24-463)
# ASSAY_REMARKS: cell-based or functional assay
Binarize hGLP-1R EC50 (pM); cAMP production at 800 pM; below is 1 (yes), at or above is 0 (no).

Solved entries:
{"columns": ["BINDER", "DISCRETE_LABEL"],
 "data": [
  ["HXHGSXTSDVSKXLDSQAAQDFVXWIANT (Aib at 2; αMePhe at 6 and 13; K(γE-γE-(PEG)2-γE-γE-C18diacid)24 (printed YE-YE-(PEG)2-γE-γE-); C-terminal amide) [Peptide 353]", "1 (yes)"],
  ["HXHGSXTSDVSKXLDSQAAQDFVXWIANT (Aib at 2; αMePhe at 6 and 13; K(O2Oc-O2Oc-γE-C18diacid)24; C-terminal amide) [Peptide 358]", "1 (yes)"],
  ["HXHGTFTSDVSKXLDSQAAQDFVXWIANT (Aib at 2; αMePhe at 13; K(γE-C18diacid)24; C-terminal amide) [Peptide 346]", "0 (no)"],
  ["HXHGSXTSDVSKXLDSQAAQDFVXWIANT (Aib at 2; αMePhe at 6 and 13; K(O2Oc-O2Oc-γE-C20diacid)24; C-terminal amide) [Peptide 356]", "1 (yes)"]
]}

Lab note: next binder to report on.
Here's an entry: HXHGTFTSDVSKXLDSQAAQDFVXWIANT (Aib at 2; αMePhe at 13; K(γE-C20diacid)24; C-terminal amide) [Peptide 347] . Is its hGLP-1R EC50 (pM); cAMP production below 800 pM? 0 (no)

Attribution: patent US20230357348A1
